Provenance of the data: the Human Domainome abundance scans (Beltran et al. 2025)

Answer each item with its documented abundance fitness.
B1: Zinc finger MYM-type protein 3, residues 405 to 444; numbered along this chain, Q14202 (parent)
chain: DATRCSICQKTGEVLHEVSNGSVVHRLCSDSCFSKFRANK

Variants of: B1
assay-details: abundance fitness (aPCA) (normalised: wild type 0, dead -1); higher = more abundant; growth selection in yeast, the domain comes from the species named
condition-details: Homo sapiens
Form rule: numeric answer, no unit written next to it.

Report abundance fitness for DATRCSICQKTGEVLHEVSNGSVVHRLCSDSCLSKFRANK [F33L] please. 0.256

Report abundance fitness for DATRCSICTKTGEVLHEVSNGSVVHRLCSDSCFSKFRANK [Q9T] please. -0.195

Report abundance fitness for DATRCSICQKTGEVLHEVSNGSVFHRLCSDSCFSKFRANK [V24F] please. -0.307

Report abundance fitness for DATRCSICQKTGEVLHEVSNGSVVHRLCSDSCFSKFRANF [K40F] please. -0.128

Report abundance fitness for DAQRCSICQKTGEVLHEVSNGSVVHRLCSDSCFSKFRANK [T3Q] please. 0.205

Report abundance fitness for DATRCSICQKTGEVLHEVSNGSVVHRLCSDSCFSKFRANI [K40I] please. 0.012

Report abundance fitness for DATRCSICQKTGEVLHEVPNGSVVHRLCSDSCFSKFRANK [S19P] please. 0.023

Report abundance fitness for DALRCSICQKTGEVLHEVSNGSVVHRLCSDSCFSKFRANK [T3L] please. -0.061

Report abundance fitness for DATRCSICQKTGEVLHEVSNGSVVHRLCSFSCFSKFRANK [D30F] please. -0.632

Report abundance fitness for DATRSSICQKTGEVLHEVSNGSVVHRLCSDSCFSKFRANK [C5S] please. -0.922

Report abundance fitness for DATRCSICQKTGEVLHEVSNGSVVHRLCSDSCFMKFRANK [S34M] please. -0.039

Report abundance fitness for DATRCSICQKTGEVLHEVSNGSVVHRLCSDSCFSKFLANK [R37L] please. -0.304

Report abundance fitness for DATRCSICQKTGEVLHEVSNGSVVHRLCSDSCFSQFRANK [K35Q] please. 0.146

Report abundance fitness for DATRCSICQKTGEILHEVSNGSVVHRLCSDSCFSKFRANK [V14I] please. -0.029

Report abundance fitness for DATRYSICQKTGEVLHEVSNGSVVHRLCSDSCFSKFRANK [C5Y] please. -0.97

Report abundance fitness for DATRCSICQKTGEVLHEVSNGSVVHRLWSDSCFSKFRANK [C28W] please. -1.02

Report abundance fitness for DATRCSICQKTGEVLHEVSNGSVVHRLCSDSCFSKFAANK [R37A] please. -0.003

Report abundance fitness for DATRCSCCQKTGEVLHEVSNGSVVHRLCSDSCFSKFRANK [I7C] please. -0.463

Report abundance fitness for DATRCSICQKTGEVLHEVSNYSVVHRLCSDSCFSKFRANK [G21Y] please. -0.389

Report abundance fitness for DATRCSICQKNGEVLHEVSNGSVVHRLCSDSCFSKFRANK [T11N] please. -0.14

Report abundance fitness for DATRCSICQKTGEVLHEVSNGSVVHRLCSDSCFSKFRLNK [A38L] please. -0.265

Report abundance fitness for DATRCSICQKTGEVLHEVSNGSVVHRACSDSCFSKFRANK [L27A] please. -0.393

Report abundance fitness for DATRCSICQKTGEVLHEVSNGSVVNRLCSDSCFSKFRANK [H25N] please. -0.031

Report abundance fitness for DATRCSICQKTGEVLHEVSNGSVVHRLCSDSCFSKFRAKK [N39K] please. 0.167

Report abundance fitness for DATRCSICQKTGEVLHEVSNGSVVHRLCGDSCFSKFRANK [S29G] please. -0.277

Report abundance fitness for DATRCSICQKTGEVLHEVSNGSVVHRLYSDSCFSKFRANK [C28Y] please. -0.85

Report abundance fitness for DATRCSICQKTGEVLHEVSNGSVVHRLCSDSCFSYFRANK [K35Y] please. -0.175

Report abundance fitness for DATRCSICQKTGEVLHEVSNGSVVHRLCSDSCFSKFRMNK [A38M] please. -0.033

Report abundance fitness for NATRCSICQKTGEVLHEVSNGSVVHRLCSDSCFSKFRANK [D1N] please. 0.142

Report abundance fitness for DATRCSICQKTGEVLHEVSNGSVVHRLCSDSCFSKFRARK [N39R] please. 0.081

Report abundance fitness for DATRCSICWKTGEVLHEVSNGSVVHRLCSDSCFSKFRANK [Q9W] please. -0.234

Report abundance fitness for DATRCSICQKTGEVLQEVSNGSVVHRLCSDSCFSKFRANK [H16Q] please. -0.053

Report abundance fitness for DATRCSICQKTGCVLHEVSNGSVVHRLCSDSCFSKFRANK [E13C] please. -0.855

Report abundance fitness for DATRCSICQKTGEVLHEVSNGEVVHRLCSDSCFSKFRANK [S22E] please. 0.006

Report abundance fitness for DATRCSICQKTGEVLHEVSNGTVVHRLCSDSCFSKFRANK [S22T] please. 0.018

Report abundance fitness for DAWRCSICQKTGEVLHEVSNGSVVHRLCSDSCFSKFRANK [T3W] please. -0.085

Report abundance fitness for GATRCSICQKTGEVLHEVSNGSVVHRLCSDSCFSKFRANK [D1G] please. 0.154

Report abundance fitness for DATRCSICQKTGEVLHEVSCGSVVHRLCSDSCFSKFRANK [N20C] please. -0.517

Report abundance fitness for DATRCSVCQKTGEVLHEVSNGSVVHRLCSDSCFSKFRANK [I7V] please. -0.037

Report abundance fitness for DATRCSICQKTGEVLHEVSNGSVVHRLPSDSCFSKFRANK [C28P] please. -0.639

Report abundance fitness for DATRCSICQKTGEVLHEVSNGSVVIRLCSDSCFSKFRANK [H25I] please. -0.216

Report abundance fitness for DATRCSICQKTGEVLHEKSNGSVVHRLCSDSCFSKFRANK [V18K] please. -0.267

Report abundance fitness for DATRCSICQKTGEVLHHVSNGSVVHRLCSDSCFSKFRANK [E17H] please. -0.285

Report abundance fitness for DATRCSICQKTGERLHEVSNGSVVHRLCSDSCFSKFRANK [V14R] please. -0.374

Report abundance fitness for DATRCSICQKTGEVLHEVSNGSVVHRLCSDSTFSKFRANK [C32T] please. -0.565

Report abundance fitness for DATRCSICQKTGEVLHEVSNGSVVHRLCSDSCFSKFRWNK [A38W] please. -0.353
